# Test system: 186277-243-T-J2-PDC spheroids with HUVEC/MSC, viability;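 note: compound exposure lasted seven days before readout; 100% = DMSO vehicle control wells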
# Assay: Anticancer human tumor 186277-243-T-J2-PDC patient-derived colon adenocarcinoma cell line growth inhibition [CLK]
# Run conditions: compound 0.316 µM; hits give low values
I'd be grateful if you could share measured viability, T/C for these entries.

Sample `COc1ccc([C@@H](O)c2cc(-c3ncnc4cc(N5CCOCC5)ccc34)c(F)cc2Cl)nn1` — what was its viability, T/C?
117%

Subsequent entry: COc1cccc2c1C(=O)c1c(O)c3c(c(O)c1C2=O)CC(O)(C(=O)CO)CC3OC1CC(N)C(O)C(C)O1 (centres undefined)
20.6%

Subsequent entry: `CN1CCN(c2cc(C(=O)Nc3cc4cc(-c5cnn(C)c5)ccc4cn3)ccn2)CC1`
23.7% [middle of 11 runs]

Subsequent entry: `CNC(=O)c1ccc(Nc2nc(OC3CCCC3)c3c(-c4ccc5nc(C)oc5c4)c[nH]c3n2)c(OC)c1`
46.2% [middle of 12 runs]

Hey, just so you know, these numbers are from PubChem BioAssay AID2060625.
